These measurements were taken from PubChem BioAssay AID1918945.

viability, T/C values, listed per item
Test system: 883617-216-R-J1-PDC complex spheroid viability
test.name: Anticancer human tumor 883617-216-R-J1-PDC patient-derived bladder carcinoma cell line growth inhibition
conditions: second compound 10 µM; first compound 0.03 µM; hits give low values
Kindly answer with a numeric value in %, unit omitted.

Completed entries (count: 8):
compound="Nc1ccccc1NC(=O)c1ccc(CNC(=O)OCc2cccnc2)cc1 + NC1CC1c1ccc(-c2cccc(O)c2)cc1" measured_value=80.7
compound="CCc1c2c(nc3ccc(O)cc13)-c1cc3c(c(=O)n1C2)COC(=O)[C@]3(O)CC + NC1CCC(NC2CC2c2ccccc2)CC1" measured_value=25.6
compound="O=C(C=Cc1cccc(S(=O)(=O)Nc2ccccc2)c1)NO + NC1CC1c1ccc(-c2cccc(O)c2)cc1" measured_value=53.2
compound="O=C(C=Cc1cccc(S(=O)(=O)Nc2ccccc2)c1)NO + NC1CCC(NC2CC2c2ccccc2)CC1" measured_value=76.4
compound="Nc1ccccc1NC(=O)c1ccc(CNC(=O)OCc2cccnc2)cc1 + NC1CCC(NC2CC2c2ccccc2)CC1" measured_value=88
compound="Nc1ncn(C2CC(O)C(CO)S2)c(=O)n1 (centres undefined) + NC1CCC(NC2CC2c2ccccc2)CC1" measured_value=74.8
compound="NS(=O)(=O)OCC1CC(n2ccc3c(NC4CCc5ccccc54)ncnc32)CC1O (centres undefined) + NC1CC1c1ccc(-c2cccc(O)c2)cc1" measured_value=139
compound="Nc1ncn(C2CC(O)C(CO)S2)c(=O)n1 (centres undefined) + NC1CC1c1ccc(-c2cccc(O)c2)cc1" measured_value=45

Now examine the next entry.
Q. Give the reported viability, T/C for this compound. COc1cc(C2c3cc4c(cc3C(OC3OC5COC(C)OC5C(O)C3O)C3COC(=O)C23)OCO4)cc(OC)c1O (centres undefined) + NC1CCC(NC2CC2c2ccccc2)CC1
A. 99.8

---

Tested on: 883617-216-R-J1-PDC complex spheroid viability
test.name: Anticancer human tumor 883617-216-R-J1-PDC cell line growth inhibition;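 note: exposure lasted seven days after three days of spheroid growth; 100% = DMSO vehicle control luminescence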
conditions: second compound 0.316 µM; first compound 0.000949 µM; hits give low values
viability, T/C values, listed per item

Completed entries (count: 2):
compound="Nc1ccn(C2OC(CO)C(O)C2(F)F)c(=O)n1 (stereo unspecified) + NC1CC1c1ccc(-c2cccc(O)c2)cc1" measured_value=19.8%
compound="Nc1ncn(C2CC(O)C(CO)S2)c(=O)n1 (stereo unspecified) + NC1CC1c1ccc(-c2cccc(O)c2)cc1" measured_value=119%

Q. Give the reported viability, T/C for this compound. CCc1c2c(nc3ccc(O)cc13)-c1cc3c(c(=O)n1C2)COC(=O)[C@]3(O)CC + NC1CC1c1ccc(-c2cccc(O)c2)cc1
A. 25.6%

Q. Give the reported viability, T/C for this compound. Nc1ncn(C2CC(O)C(CO)S2)c(=O)n1 (stereo unspecified) + NC1CCC(NC2CC2c2ccccc2)CC1
A. 114%

Q. Give the reported viability, T/C for this compound. Nc1ccn(C2OC(CO)C(O)C2(F)F)c(=O)n1 (stereo unspecified) + NC1CCC(NC2CC2c2ccccc2)CC1
A. 24.9%

Q. Give the reported viability, T/C for this compound. CCc1c2c(nc3ccc(O)cc13)-c1cc3c(c(=O)n1C2)COC(=O)[C@]3(O)CC + NC1CCC(NC2CC2c2ccccc2)CC1
A. 35.5%

---

Tested on: 883617-216-R-J1-PDC complex spheroid viability
test.name: Anticancer human tumor 883617-216-R-J1-PDC cell line growth inhibition;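 note: exposure lasted seven days after three days of spheroid growth; 100% = DMSO vehicle control luminescence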
conditions: second compound 3.16 µM; first compound 0.00949 µM; hits give low values
viability, T/C values, listed per item
Kindly answer with a numeric value in %, unit omitted.

Completed entries (count: 4):
compound="Nc1ccccc1NC(=O)c1ccc(CNC(=O)OCc2cccnc2)cc1 + NC1CCC(NC2CC2c2ccccc2)CC1" measured_value=102
compound="CCc1c2c(nc3ccc(O)cc13)-c1cc3c(c(=O)n1C2)COC(=O)[C@]3(O)CC + NC1CCC(NC2CC2c2ccccc2)CC1" measured_value=26.7
compound="Nc1ncn(C2CC(O)C(CO)S2)c(=O)n1 (stereo unspecified) + NC1CC1c1ccc(-c2cccc(O)c2)cc1" measured_value=64.2
compound="NS(=O)(=O)OCC1CC(n2ccc3c(NC4CCc5ccccc54)ncnc32)CC1O (stereo unspecified) + NC1CC1c1ccc(-c2cccc(O)c2)cc1" measured_value=122

Now examine the next entry.
Q. Give the reported viability, T/C for this compound. CCc1c2c(nc3ccc(O)cc13)-c1cc3c(c(=O)n1C2)COC(=O)[C@]3(O)CC + NC1CC1c1ccc(-c2cccc(O)c2)cc1
A. 19.6

---

viability, T/C values, listed per item
Tested on: 883617-216-R-J1-PDC complex spheroid viability
test.name: Anticancer human tumor 883617-216-R-J1-PDC cell line growth inhibition;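 note: exposure lasted seven days after three days of spheroid growth; 100% = DMSO vehicle control luminescence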
conditions: second compound 1 µM; first compound 0.0316 µM; hits give low values
Kindly answer with a numeric value in %, unit omitted.

Completed entries (count: 8):
molecule="CC1(C)CCC(CN2CCN(c3ccc(C(=O)NS(=O)(=O)c4ccc(NCC5CCOCC5)c([N+](=O)[O-])c4)c(Oc4cnc5[nH]ccc5c4)c3)CC2)=C(c2ccc(Cl)cc2)C1 + NC1CC1c1ccc(-c2cccc(O)c2)cc1" measured_value=115
molecule="CC(C)c1c(-c2ccccc2)nc2c(C#N)c[nH]n2c1=O + NC1CC1c1ccc(-c2cccc(O)c2)cc1" measured_value=132
molecule="O=C(C=Cn1cnc(-c2cc(C(F)(F)F)cc(C(F)(F)F)c2)n1)NNc1cnccn1 + NC1CC1c1ccc(-c2cccc(O)c2)cc1" measured_value=18.4
molecule="CC(C)c1c(-c2ccccc2)nc2c(C#N)c[nH]n2c1=O + NC1CCC(NC2CC2c2ccccc2)CC1" measured_value=97.3
molecule="CC1COCCN1c1cc(-c2ccnn2C)c2ccnc(-c3ccn[nH]3)c2n1 (configuration not stated) + NC1CCC(NC2CC2c2ccccc2)CC1" measured_value=50.4
molecule="COc1cc(Nc2ncc3c(n2)-c2ccc(Cl)cc2C(c2c(F)cccc2OC)=NC3)ccc1C(=O)O + NC1CC1c1ccc(-c2cccc(O)c2)cc1" measured_value=43.2
molecule="CC1(C)CCC(CN2CCN(c3ccc(C(=O)NS(=O)(=O)c4ccc(NCC5CCOCC5)c([N+](=O)[O-])c4)c(Oc4cnc5[nH]ccc5c4)c3)CC2)=C(c2ccc(Cl)cc2)C1 + NC1CCC(NC2CC2c2ccccc2)CC1" measured_value=105
molecule="COc1ccc([C@@H](O)c2cc(-c3ncnc4cc(N5CCOCC5)ccc34)c(F)cc2Cl)nn1 + NC1CC1c1ccc(-c2cccc(O)c2)cc1" measured_value=113

Q. Give the reported viability, T/C for this molecule. CC1COCCN1c1cc(-c2ccnn2C)c2ccnc(-c3ccn[nH]3)c2n1 (configuration not stated) + NC1CC1c1ccc(-c2cccc(O)c2)cc1
A. 32.8

Q. Give the reported viability, T/C for this molecule. COc1cc(Nc2ncc3c(n2)-c2ccc(Cl)cc2C(c2c(F)cccc2OC)=NC3)ccc1C(=O)O + NC1CCC(NC2CC2c2ccccc2)CC1
A. 54.6

Q. Give the reported viability, T/C for this molecule. O=C(c1cc(Cc2n[nH]c(=O)c3ccccc23)ccc1F)N1CCN(C(=O)C2CC2)CC1 + NC1CCC(NC2CC2c2ccccc2)CC1
A. 90.8

Q. Give the reported viability, T/C for this molecule. CC[C@@]1(O)C(=O)OCc2c1cc1n(c2=O)Cc2cc3c(CN(C)C)c(O)ccc3nc2-1 + NC1CCC(NC2CC2c2ccccc2)CC1
A. 36.2

Q. Give the reported viability, T/C for this molecule. COc1ccc([C@@H](O)c2cc(-c3ncnc4cc(N5CCOCC5)ccc34)c(F)cc2Cl)nn1 + NC1CCC(NC2CC2c2ccccc2)CC1
A. 101

Q. Give the reported viability, T/C for this molecule. CC(C)CC(NC(=O)CNC(=O)c1cc(Cl)ccc1Cl)B1OC(=O)CC(CC(=O)O)(C(=O)O)O1 (configuration not stated) + NC1CCC(NC2CC2c2ccccc2)CC1
A. 10.3

Q. Give the reported viability, T/C for this molecule. CC(C)CC(NC(=O)C(Cc1ccccc1)NC(=O)c1cnccn1)B(O)O (configuration not stated) + NC1CCC(NC2CC2c2ccccc2)CC1
A. 0.94

Q. Give the reported viability, T/C for this molecule. Cn1ncnc1C1c2n[nH]c(=O)c3cc(F)cc(c23)NC1c1ccc(F)cc1 (configuration not stated) + NC1CC1c1ccc(-c2cccc(O)c2)cc1
A. 43

---

viability, T/C values, listed per item
System: 883617-216-R-J1-PDC complex spheroid viability
test.name: Anticancer human tumor 883617-216-R-J1-PDC cell line growth inhibition;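 note: exposure lasted seven days after three days of spheroid growth; 100% = DMSO vehicle control luminescence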
conditions: second compound 1 µM; first compound 0.001 µM; hits give low values
Kindly answer with a numeric value in %, unit omitted.

compound="Cn1ncnc1C1c2n[nH]c(=O)c3cc(F)cc(c23)NC1c1ccc(F)cc1 (stereo not drawn) + NC1CCC(NC2CC2c2ccccc2)CC1" recorded_endpoint="viability, T/C" measured_value=113

Q. Give the reported viability, T/C for this compound. CC[C@@]1(O)C(=O)OCc2c1cc1n(c2=O)Cc2cc3c(CN(C)C)c(O)ccc3nc2-1 + NC1CCC(NC2CC2c2ccccc2)CC1
A. 87.2

Q. Give the reported viability, T/C for this compound. CC(C)CC(NC(=O)CNC(=O)c1cc(Cl)ccc1Cl)B1OC(=O)CC(CC(=O)O)(C(=O)O)O1 (stereo not drawn) + NC1CC1c1ccc(-c2cccc(O)c2)cc1
A. 108

Q. Give the reported viability, T/C for this compound. CC(C)CC(NC(=O)CNC(=O)c1cc(Cl)ccc1Cl)B1OC(=O)CC(CC(=O)O)(C(=O)O)O1 (stereo not drawn) + NC1CCC(NC2CC2c2ccccc2)CC1
A. 107

Q. Give the reported viability, T/C for this compound. CC(C)CC(NC(=O)C(Cc1ccccc1)NC(=O)c1cnccn1)B(O)O (stereo not drawn) + NC1CCC(NC2CC2c2ccccc2)CC1
A. 74.6

Q. Give the reported viability, T/C for this compound. Cn1ncnc1C1c2n[nH]c(=O)c3cc(F)cc(c23)NC1c1ccc(F)cc1 (stereo not drawn) + NC1CC1c1ccc(-c2cccc(O)c2)cc1
A. 88.9

Q. Give the reported viability, T/C for this compound. CC[C@@]1(O)C(=O)OCc2c1cc1n(c2=O)Cc2cc3c(CN(C)C)c(O)ccc3nc2-1 + NC1CC1c1ccc(-c2cccc(O)c2)cc1
A. 71.5

Q. Give the reported viability, T/C for this compound. CC(C)CC(NC(=O)C(Cc1ccccc1)NC(=O)c1cnccn1)B(O)O (stereo not drawn) + NC1CC1c1ccc(-c2cccc(O)c2)cc1
A. 46.5
